Numbers sourced from patent US20100184815A1.

Give measured pEC50 for each item. Keep answers brief.
- Test System: Gal-4 hPPARα (Homo sapiens, UniProt Q07869)
- Construct: Plasmids pGal4-hPPARα, pGal4-hPPARγ, pGal4-hPPARδ and pG5-TK-pGL3 were constructed as previously described by Staels, Bart, et al., Nature 1998 Jun; 25
- Sequence (Q07869 200-468 limits assumed): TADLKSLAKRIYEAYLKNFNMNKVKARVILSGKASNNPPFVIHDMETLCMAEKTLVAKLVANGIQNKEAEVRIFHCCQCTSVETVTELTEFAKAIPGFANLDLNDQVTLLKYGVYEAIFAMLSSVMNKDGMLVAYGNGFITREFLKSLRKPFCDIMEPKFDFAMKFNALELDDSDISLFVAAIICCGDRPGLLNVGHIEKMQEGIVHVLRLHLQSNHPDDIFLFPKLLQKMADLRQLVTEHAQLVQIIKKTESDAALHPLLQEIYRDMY
- Assay Text: Gal4-hPPARα transient transfection reporter assay in Cos cells
- Run Conditions: luciferase reporter, 24 hours with compound, scale 1-5, read-out: Gal-4 hPPAR α EC50 (scaled number)
pEC50: −log10 of the molar value.

Past entries and their recorded results:
{"Compound": "CCn1c(COC(=O)c2ccc(SC(C)(C)C(=O)O)cc2)nn(Cc2ccc(C(C)(C)C)cc2)c1=O", "pEC50": "7.30 to 9.00"}
{"Compound": "CCCCCCn1c(COC(=O)c2ccc(SC(C)(C)C(=O)O)cc2)nn(Cc2ccc(C)cc2)c1=O", "pEC50": "7.30 to 9.00"}
{"Compound": "CCCn1c(COC(=O)c2ccc(SC(C)(C)C(=O)O)cc2)nn(Cc2cc(F)cc(F)c2)c1=O", "pEC50": "6.70 to 7.29"}
{"Compound": "C[C@@H](OC(=O)c1ccc(SC(C)(C)C(=O)O)cc1)c1cn(Cc2cccc(C(F)(F)F)c2)nn1", "pEC50": "7.30 to 9.00"}
{"Compound": "CCCCCCCn1c(C(C)OC(=O)c2ccc(SC(C)(C)C(=O)O)cc2)nn(Cc2ccc(C)cc2)c1=O (centres unmarked)", "pEC50": "> 9.00"}
{"Compound": "CCCn1c([C@H](C)OC(=O)c2ccc(SC(C)(C)C(=O)O)cc2)nn(Cc2ccc(C)cc2)c1=O", "pEC50": "6.70 to 7.29"}
{"Compound": "CC(C)(Sc1ccc(C(=O)OCc2cn(Cc3ccc(C(F)(F)F)cc3)nn2)cc1)C(=O)O [Compound 67]", "pEC50": "7.30 to 9.00"}
{"Compound": "CCCCCCCCn1c(COC(=O)c2ccc(OC(C)(C)C(=O)O)cc2)nn(Cc2ccc(C)cc2)c1=O", "pEC50": "6.70 to 7.29"}

Batch lookup, pEC50 per entry.
1. CCCCCCCn1c(COC(=O)c2ccc(SC(C)(C)C(=O)O)cc2)nn(Cc2ccc(C(C)(C)C)cc2)c1=O
2. CC(C)(Sc1ccc(C(=O)OCc2cnn(Cc3cccc(C(F)(F)F)c3)c2)cc1)C(=O)O
3. Cc1ccc(Cn2cc(C(C)OC(=O)c3ccc(SC(C)(C)C(=O)O)cc3)nn2)cc1 (centres unmarked)

Result:
1. 7.30 to 9.00
2. 7.30 to 9.00
3. 7.30 to 9.00

Return reported pEC50 values for all items listed beneath this line.
1. C[C@H](OC(=O)c1ccc(SC(C)(C)C(=O)O)cc1)c1cn(Cc2ccc(C(F)(F)F)cc2)nn1
2. CCCn1c(COC(=O)c2ccc(SC(C)(C)C(=O)O)cc2)nn(Cc2cc(C(F)(F)F)cc(C(F)(F)F)c2)c1=O
3. Cc1ccc(Cn2nncc2COC(=O)c2ccc(SC(C)(C)C(=O)O)cc2)cc1
4. CCCCCCCn1c(COC(=O)c2ccc(OC(C)(C)C(=O)O)cc2)nn(Cc2ccc(C)cc2)c1=O

Result:
6.00 to 6.70
7.30 to 9.00
6.70 to 7.29
7.30 to 9.00
